Molecular target: Recombinant HCV polymerase (Hepatitis C virus genotype 1b, UniProt P26663)
Construct: Recombinant HCV polymerase was tested for its ability to perform primer/template-directed transcription
Sequence (P26663 2420-3010): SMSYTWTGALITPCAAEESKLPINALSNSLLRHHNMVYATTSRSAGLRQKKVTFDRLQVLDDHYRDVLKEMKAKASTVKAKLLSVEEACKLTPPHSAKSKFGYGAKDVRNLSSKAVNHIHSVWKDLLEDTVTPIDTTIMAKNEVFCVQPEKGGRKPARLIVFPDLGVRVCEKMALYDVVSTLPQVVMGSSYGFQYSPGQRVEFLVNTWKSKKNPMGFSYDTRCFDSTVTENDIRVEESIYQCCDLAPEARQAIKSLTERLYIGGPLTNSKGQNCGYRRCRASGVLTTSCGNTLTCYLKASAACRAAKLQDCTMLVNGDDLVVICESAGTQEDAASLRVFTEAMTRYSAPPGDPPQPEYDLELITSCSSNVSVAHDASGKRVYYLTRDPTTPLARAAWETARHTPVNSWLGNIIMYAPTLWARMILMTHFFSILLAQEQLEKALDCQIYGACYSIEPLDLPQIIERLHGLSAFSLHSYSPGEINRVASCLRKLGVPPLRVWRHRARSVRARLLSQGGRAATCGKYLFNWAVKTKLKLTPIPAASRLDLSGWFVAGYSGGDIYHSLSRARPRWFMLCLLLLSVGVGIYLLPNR
Experiment: biochemical
Conditions: inhibition of polymerase-directed transcription; 30 min at 30° C; 30 nM enzyme; cpm data in triplicate
Description: The compounds described herein were tested for activity with HCV polymerase. […] The filters were counted in a Packard Tri-Lux Microbeta scintillation counter (Packard Bioscience, Meriden, Conn.). […]
pIC50: −log10 of the molar value.
VALUE TYPE: pIC50

[[record]]
molecule = "CCc1cc(CCC2(C3CCCC3)CC(O)=C(Cc3nc4nc(C)cc(C)n4n3)C(=O)O2)ccc1Cn1cccn1 (centres unmarked)"
endpoint_result = 8.15

[[record]]
molecule = "CCc1cc(CCC2(C3CCCC3)CC(O)=C(Cc3nc4nc(C)cc(C)n4n3)C(=O)O2)ccc1OCCNC (centres unmarked)"
endpoint_result = 8.10

[[record]]
molecule = "Cc1cc(C)n2nc(CC3=C(O)CC(CCc4cc(CC(F)(F)F)nc(CC(F)(F)F)c4)(C4CCCC4)OC3=O)nc2n1 (centres unmarked) [A(9)]"
endpoint_result = 8.30

[[record]]
molecule = "CCS(=O)(=O)N[C@H](C)c1ccc(CCC2(C3CCCC3)CC(O)=C(Cc3nc4nc(C)cc(C)n4n3)C(=O)O2)cc1 (some centres unmarked)"
endpoint_result = 6.92

[[record]]
molecule = "Cc1cc(C)n2nc(CC3=C(O)CC(CCc4ccc(C(C)(C)C#N)c(C(F)(F)F)c4)(C4CCCC4)OC3=O)nc2n1 (racemic)"
endpoint_result = 8.30


a = CCc1cc(CCC2(C3CCCC3)CC(O)=C(Cc3nc4nc(C)cc(C)n4n3)C(=O)O2)c(C)nc1N (centres unmarked)
b = O=C1CC(=O)OC(CCc2ccc(C(=O)O)c(F)c2)(C2CCCC2)C1 (centres unmarked)
Input line: Please choose the item with the lower pIC50 value from this pair: a and b Mark your selection by writing its label.
Output line: b

a = CCc1cc(CCC2(C3CCCC3)CC(=O)CC(=O)O2)ccc1OCCNC(=O)OC(C)(C)C (centres unmarked)
b = CCc1cc(CCC2(C3CCCC3)CC(O)=C(Cc3nc4nc(C)cc(C)n4n3)C(=O)O2)ccc1CO (single isomer, unassigned; enantiomer 2) [A(115)]
Input line: For the two items a and b , which reports the higher pIC50 value? Use the label to indicate which entry you chose.
Output line: b
(b: 8.22, a: 4.92)

a = CCCOc1cnc(CC)cc1CCC1(C2CCCC2)CC(O)=C(Cc2nc3nc(C)cc(C)n3n2)C(=O)O1 (centres unmarked) [A(42)]
b = CCc1cc(CC[C@]2(C3CCCC3)CC(O)=C(Cc3nc4ncc(C)cn4n3)C(=O)O2)c(O)cc1O
c = Cc1cc(C)n2nc(CC3=C(O)CC(CCc4ccc(S(=O)(=O)C(F)(F)F)cc4)(C4CCCC4)OC3=O)nc2n1 (centres unmarked)
Input line: Arrange the 3 molecules by rising pIC50, starting with the smallest. Returns: the labels arranged in the requested order.
Output line: c, a, b

Value source: patent US7151105B2
